Attribute: IC50
target.desc: PAR2 (HT-29 cells, SLIGKV activation) (Homo sapiens)
Construct: host or cells: HT-29 cells
assay.remarks: Ca FLIPR TETRA assay, ANTAGONIST mode, stimulation with 8 μM SLIGKV
Assay type: cell-based
run.conditions: HT-29 cells, stimulation with 8 μM SLIGKV
Unit nM implied. Number only.

Sample records with IC50:
* CCc1cc(-c2ccc(F)cc2)nn2cc(C(=O)N3CCN(C(=O)CC4CCOCC4)[C@@H](C)C3)nc12 | 200
* CC(C)c1cc(-c2ccc(F)cc2)nn2cc(C(=O)N3CCN(C(=O)CC(C)(C)C)[C@@H](C)C3)nc12 | 2
* CCCCC(=O)N1CCN(C(=O)c2cn3nc(-c4ccc(F)cc4)cc(C(C)C)c3n2)C[C@@H]1C | 6
* C[C@H](O)C(=O)N1CCN(C(=O)c2cn3nc(-c4ccc(F)cc4)cc(C4(C)CC4)c3n2)C(C)(C)C1 | 54

# ---- query compound ----
Provide IC50 value for the following compound: CC(C)(O)C1CCCN(C(=O)c2cn3nc(-c4ccc(F)cc4)cc(C(F)(F)F)c3n2)C1 (centres unmarked)
6000

====

target.desc: PAR2 (HT-29 cells, trypsin activation) (Homo sapiens)
Construct: host or cells: HT-29 cells
assay.remarks: Ca FLIPR TETRA assay, ANTAGONIST mode, stimulation with 3.1 U/mL trypsin
Format: cell-based
run.conditions: HT-29 cells, antagonist mode, stimulation with 3.1 U/mL trypsin
pIC50: −log10 of the molar value.
So basically: pIC50 at 8 or higher? That is fulfilled. Lower than 8? That is not fulfilled.

- Cc1ncc(C(=O)N2CCN(C(=O)c3cn4nc(-c5ccc(Cl)cc5)cc(C(C)(C)C)c4n3)C(C)(C)C2)[nH]1: fulfilled

Could you tell me if the measured pIC50 of "Cc1ccc(-c2cc(C(C)(C)C)c3nc(C(=O)N4CCN(C(=O)c5ccn[nH]5)CC4(C)C)cn3n2)cc1" reaches 8 or more?
fulfilled

Could you tell me if the measured pIC50 of "COCC(C)(C)c1cc(-c2ccc(F)cc2)nn2cc(C(=O)N3CCNC(=O)C3(C)C)nc12" reaches 8 or more?
not fulfilled

Could you tell me if the measured pIC50 of "CC(C)c1cc(-c2ccc(F)c(Cl)c2)nn2cc(C(=O)N3CCN(C(=O)[C@H]4C[C@H](O)C4)CC3(C)C)nc12" reaches 8 or more?
not fulfilled

Could you tell me if the measured pIC50 of "CC(C)c1cc(-c2ccc(Cl)cc2)nn2cc(C(=O)N3CCN(C(=O)[C@H]4CC[C@H](C(=O)O)CC4)CC3(C)C)nc12" reaches 8 or more?
not fulfilled

Could you tell me if the measured pIC50 of "C[C@@H]1C[C@H](c2cc(-c3ccc(F)cc3)nn3cc(C(=O)N4CCN(C(=O)[C@H]5C[C@](O)(C(F)(F)F)C5)CC4(C)C)nc23)C[C@H](C)O1" reaches 8 or more?
fulfilled

Could you tell me if the measured pIC50 of "CC(C)(C)c1cc(-c2ccc(Cl)cc2)nn2cc(C(=O)N3CCN(C(=O)c4ncccn4)CC3(C)C)nc12" reaches 8 or more?
fulfilled

Could you tell me if the measured pIC50 of "CC(C)c1cc(-c2ccc(F)cc2)nn2cc(C(=O)N3CCN(C(=O)c4ccncc4)CC3(C)C)nc12" reaches 8 or more?
not fulfilled

Could you tell me if the measured pIC50 of "Cc1nc(C(=O)N2CCN(C(=O)c3cn4nc(-c5ccc(Cl)c(F)c5)cc(C(C)(C)C)c4n3)C(C)(C)C2)n[nH]1" reaches 8 or more?
fulfilled

Could you tell me if the measured pIC50 of "Cc1ccc(-c2cc(C(C)C)c3nc(C(=O)N4CCN(C(=O)c5ccn[nH]5)CC4(C)C)cn3n2)cc1" reaches 8 or more?
fulfilled

Could you tell me if the measured pIC50 of "C[C@H]1CN(c2cc(-c3ccc(F)cc3)nn3cc(C(=O)N4CCNC(=O)C4(C)C)nc23)C[C@H](C)O1" reaches 8 or more?
not fulfilled

Could you tell me if the measured pIC50 of "CC(C)(C)c1cc(-c2ccc(F)c(Cl)c2)nn2cc(C(=O)N3CCN(C(=O)c4ccn[nH]4)CC3(C)C)nc12" reaches 8 or more?
fulfilled

Could you tell me if the measured pIC50 of "Cc1ccc(-c2cc(C(C)C)c3nc(C(=O)N4CCN(C(=O)c5ccccn5)CC4(C)C)cn3n2)cc1F" reaches 8 or more?
fulfilled

Could you tell me if the measured pIC50 of "Cc1ccc(-c2cc(C(C)C)c3nc(C(=O)N4CCN(C(=O)[C@H]5C[C@](O)(C(F)(F)F)C5)CC4(C)C)cn3n2)cc1" reaches 8 or more?
fulfilled

Could you tell me if the measured pIC50 of "CC(C)c1cc(-c2ccc(F)cc2)nn2cc(C(=O)N3C[C@H](C)OCC3(C)C)nc12" reaches 8 or more?
not fulfilled

Could you tell me if the measured pIC50 of "Cc1cc(C(=O)N2CCN(C(=O)c3cn4nc(-c5ccc(F)c(C)c5)cc(C(C)C)c4n3)C(C)(C)C2)[nH]n1" reaches 8 or more?
fulfilled

====

target.desc: PAR2 (HT-29 cells, trypsin activation) (Homo sapiens)
Construct: host or cells: HT-29 cells
assay.remarks: Ca FLIPR TETRA assay, ANTAGONIST mode, stimulation with 3.1 U/mL trypsin
Type: cell-based
run.conditions: HT-29 cells, stimulation with 3.1 U/mL trypsin
property: IC50 (nM)
Unit nM implied. Number only.

Sample records with IC50:
- CC(C)c1cc(-c2ccc(F)cc2)nn2cc(C(=O)N3CCN(C(=O)OC(C)(C)C)CC34COC4)nc12 [Compound I-23]: 300
- C[C@H]1CN(C(=O)c2cn3nc(-c4ccc(F)cc4)cc(C(F)(F)F)c3n2)CCN1C(=O)OCc1ccccn1 [Compound I-11]: 300

Please tell me the measured IC50 for O=C1CCN(C(=O)c2cn3nc(-c4ccc(F)cc4)cc(C(F)(F)F)c3n2)CC1 [Compound I-66] ; system: PAR2 (HT-29 cells, trypsin activation) (Homo sapiens).
12000

====

Attribute: IC50
target.desc: PAR2 (HT-29 cells, SLIGKV activation) (Homo sapiens)
Construct: host or cells: HT-29 cells
assay.remarks: Ca FLIPR TETRA assay, ANTAGONIST mode, stimulation with 8 μM SLIGKV
Type: cell-based
run.conditions: HT-29 cells, antagonist mode, stimulation with 8 μM SLIGKV
Unit µM implied. Number only.

• CC(C)c1cc(-c2ccc(F)c(Cl)c2)nn2cc(C(=O)N3CCN(C(=O)[C@H]4C[C@H](O)C4)CC3(C)C)nc12 = 0.012

Provide IC50 value for the following molecule: "Cc1ncc(C(=O)N2CCN(C(=O)c3cn4nc(-c5ccc(Cl)c(F)c5)cc(C(C)(C)C)c4n3)C(C)(C)C2)[nH]1"
0.0007

Provide IC50 value for the following molecule: "Cc1cc(C(=O)N2CCN(C(=O)c3cn4nc(-c5ccc(F)cc5)cc(C(C)(C)C)c4n3)C(C)(C)C2)no1"
0.0007

Provide IC50 value for the following molecule: "CC1(C)CN(C(=O)c2ccn[nH]2)CCN1C(=O)c1cn2nc(-c3ccc(F)cc3)cc(C(F)(F)F)c2n1"
0.0133

Provide IC50 value for the following molecule: "CC(C)(C)c1cc(-c2ccc(F)cc2)nn2cc(C(=O)N3CCN(C(F)F)C(=O)C3(C)C)nc12"
0.085

====

Attribute: pIC50
target.desc: PAR2 (HT-29 cells, SLIGKV activation) (Homo sapiens)
Construct: host or cells: HT-29 cells
assay.remarks: Ca FLIPR TETRA assay, ANTAGONIST mode, stimulation with 8 μM SLIGKV
Assay type: cell-based
run.conditions: HT-29 cells, antagonist mode, stimulation with 8 μM SLIGKV
Recall that pIC50 is obtained by taking minus log10 of the concentration measured in molar.

• CC1(C)CN(C(=O)c2ccncn2)CCN1C(=O)c1cn2nc(-c3ccc(F)cc3)cc(C(F)(F)F)c2n1 [Compound I-268] = 7.19

# ---- query compound ----
Provide pIC50 value for the following compound: CC(C)c1cc(-c2ccc(F)cc2)nn2cc(C(=O)N3CCN(C(=O)C(C)(O)C(F)(F)F)CC3(C)C)nc12 (centres unmarked) [Compound I-313]
7.82

====

Attribute: pIC50
target.desc: PAR2 (HT-29 cells, SLIGKV activation) (Homo sapiens, UniProt P55085)
Construct: host or cells: HT-29 cells
Sequence (P55085 26-397): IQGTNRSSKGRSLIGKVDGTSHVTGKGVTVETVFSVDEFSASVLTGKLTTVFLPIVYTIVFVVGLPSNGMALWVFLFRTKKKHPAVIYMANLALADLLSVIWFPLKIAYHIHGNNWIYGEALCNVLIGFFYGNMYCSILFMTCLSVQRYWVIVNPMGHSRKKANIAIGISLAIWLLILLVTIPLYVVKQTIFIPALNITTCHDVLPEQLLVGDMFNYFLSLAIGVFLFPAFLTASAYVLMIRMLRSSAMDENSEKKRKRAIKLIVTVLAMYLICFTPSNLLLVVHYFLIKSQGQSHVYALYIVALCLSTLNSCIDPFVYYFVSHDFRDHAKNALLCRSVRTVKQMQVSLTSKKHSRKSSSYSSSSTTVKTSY
assay.remarks: Ca FLIPR TETRA assay, ANTAGONIST mode, stimulation with 8 μM SLIGKV
Type: cell-based
run.conditions: HT-29 cells, antagonist mode, stimulation with 8 μM SLIGKV
Recall that pIC50 is obtained by taking minus log10 of the concentration measured in molar.

Sample records with pIC50:
• Cc1cc(-c2cc(C(C)C)c3nc(C(=O)N4CCN(C(=O)c5ccccn5)CC4(C)C)cn3n2)ccc1F = 8.03
• CC(C)c1cc(-c2ccc(C(F)(F)F)c(F)c2)nn2cc(C(=O)N3CCN(C(=O)[C@H]4C[C@](O)(C(F)(F)F)C4)CC3(C)C)nc12 = 9.40

Please tell me the measured pIC50 for "CC(C)c1cc(-c2ccc(Cl)cc2)nn2cc(C(=O)N3CCN(C(=O)[C@H]4C[C@H](O)C4)CC3(C)C)nc12" ; system: PAR2 (HT-29 cells, SLIGKV activation) (Homo sapiens, UniProt P55085).
8.38

The measurements presented in this section are drawn from patent US20190119282A1.
